FYI, the data here is from paper PMC3261798.

Test Target: PKD1 (Homo sapiens, UniProt Q15139)
Sequence (Q15139 whole entry): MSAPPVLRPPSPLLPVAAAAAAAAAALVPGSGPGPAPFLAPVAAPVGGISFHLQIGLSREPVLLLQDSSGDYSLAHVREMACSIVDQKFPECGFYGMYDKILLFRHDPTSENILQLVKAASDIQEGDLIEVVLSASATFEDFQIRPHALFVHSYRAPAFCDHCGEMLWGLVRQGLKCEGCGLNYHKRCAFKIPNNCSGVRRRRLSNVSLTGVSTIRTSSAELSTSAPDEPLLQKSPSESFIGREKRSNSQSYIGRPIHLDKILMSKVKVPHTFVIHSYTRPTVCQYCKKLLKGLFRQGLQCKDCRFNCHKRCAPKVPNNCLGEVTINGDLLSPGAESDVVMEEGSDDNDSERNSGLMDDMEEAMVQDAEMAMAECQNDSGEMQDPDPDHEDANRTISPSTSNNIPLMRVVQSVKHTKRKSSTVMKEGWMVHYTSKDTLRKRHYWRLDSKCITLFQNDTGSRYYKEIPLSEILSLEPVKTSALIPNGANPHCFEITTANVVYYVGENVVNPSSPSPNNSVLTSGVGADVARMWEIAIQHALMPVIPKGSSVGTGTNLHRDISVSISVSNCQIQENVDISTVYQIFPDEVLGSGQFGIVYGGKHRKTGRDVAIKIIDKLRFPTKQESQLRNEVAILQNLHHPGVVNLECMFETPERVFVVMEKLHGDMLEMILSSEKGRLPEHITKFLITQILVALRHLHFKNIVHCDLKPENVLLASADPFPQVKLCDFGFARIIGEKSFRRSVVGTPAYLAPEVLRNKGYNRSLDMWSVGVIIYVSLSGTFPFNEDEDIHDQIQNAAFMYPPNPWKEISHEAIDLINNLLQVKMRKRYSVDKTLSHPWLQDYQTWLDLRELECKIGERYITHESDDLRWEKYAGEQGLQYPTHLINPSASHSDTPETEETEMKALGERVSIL
Measurement Description: % PKD1 activity at 1 μM (single concentration; assay format not stated)
Format: biochemical
Test Context: compound at 1 μM
Measured Quantity: remaining activity at 1 µM (%)

[
  {
    "Compound": "c1ccc(COc2ccc3sc4c(c3c2)SCCNC4)cc1",
    "remaining activity at 1 µM [%]": 78.3
  },
  {
    "Compound": "O=C1NCCCSc2c1sc1ccc(OCc3ccccc3)cc21",
    "remaining activity at 1 µM [%]": 84.3
  },
  {
    "Compound": "COc1cccc2c3c(sc12)C(=O)NCCS3",
    "remaining activity at 1 µM [%]": 77.5
  },
  {
    "Compound": "COc1ccc2sc3c(c2c1)OCCCNC3=O",
    "remaining activity at 1 µM [%]": 62
  },
  {
    "Compound": "O=C1NCCSc2c1sc1ccc(O)c(I)c21",
    "remaining activity at 1 µM [%]": 13.6
  }
]

a: O=C1NCCSc2c1[s+]([O-])c1ccc(O)cc21 (stereo not shown)
b: O=C1NCCSc2c1sc1c(O)cccc21
In: Name the one with the greater remaining activity at 1 µM value, either a or b as given. I would appreciate it if you answered with the label of your choice.
Out: b
(b: 99%, a: 66.5%)
